src = patent US20260108546A1

Assay target: hGIP-R (Homo sapiens, UniProt P48546)
Construct: expressed in transfected cells; host or cells: HEK-293 clonal cell lines
Sequence (P48546 22-466): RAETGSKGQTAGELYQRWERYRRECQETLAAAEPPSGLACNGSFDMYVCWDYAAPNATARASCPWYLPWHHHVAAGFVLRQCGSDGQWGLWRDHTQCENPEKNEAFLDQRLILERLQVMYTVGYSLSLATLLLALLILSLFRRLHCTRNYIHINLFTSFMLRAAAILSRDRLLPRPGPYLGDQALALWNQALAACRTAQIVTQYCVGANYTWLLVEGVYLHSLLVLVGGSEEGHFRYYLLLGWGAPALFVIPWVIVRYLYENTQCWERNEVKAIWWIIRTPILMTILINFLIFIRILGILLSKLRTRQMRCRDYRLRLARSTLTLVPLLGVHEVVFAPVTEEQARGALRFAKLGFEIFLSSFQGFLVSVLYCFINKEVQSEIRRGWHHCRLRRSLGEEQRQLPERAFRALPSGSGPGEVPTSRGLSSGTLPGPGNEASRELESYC
Assay comment: Functional hGIP-R Assay (cAMP formation, HTRF)
Type: cell-based
Study conditions: cAMP efficacy; percent of maximal response to GIP(1-42)OH; 37° C., 0.1% bovine casein; arithmetic mean ± SEM
Measurement name: Emax (%)

Example entries and their recorded answers appear below.
[
  {
    "Compound": "Cn1cc2cc(-c3ccc([C@H]4C[C@@H]4C(=O)N[C@H](Cc4cnc5ncccn45)C(=O)NC(C)(C)Cn4nc(C(F)(F)F)cc4-c4cn[nH]n4)cc3)cnc2n1",
    "Result units": "%",
    "Emax": 87.8
  },
  {
    "Compound": "Cn1cc2cc(-c3ccc([C@H]4C[C@@]45CCN([C@H](Cc4cnn(C(F)F)c4)C(=O)NC(C)(C)Cn4nc(C(F)(F)F)cc4-c4cc(C(F)(F)F)c(=O)n(C)c4)C5=O)cc3)cnc2n1",
    "Result units": "%",
    "Emax": 74.9
  },
  {
    "Compound": "Cn1cc(C[C@@H](NC(=O)[C@H]2C[C@@H]2c2ccc(-c3cnc4nn(C)cc4c3)cc2)C(=O)NC(C)(C)Cn2nc(C(F)(F)F)cc2-c2cnn3c2CN(C(=O)OC(C)(C)C)CC3)cn1",
    "Result units": "%",
    "Emax": 113
  },
  {
    "Compound": "CC(C)(Cn1nc(C(F)(F)F)cc1-c1ccn(C2CC2)c(=O)c1)NC(=O)[C@@H](Cc1cnn(C(F)F)c1)N1CCC2(CC2c2ccc(-c3cnc4nc(C5CC5)cn4c3)nc2C2CC2)C1=O (single isomer, unassigned)",
    "Result units": "%",
    "Emax": 116
  },
  {
    "Compound": "Cn1cc(-c2cc(C(F)(F)F)nn2CC(C)(C)NC(=O)[C@@H](Cc2cnn(C(F)F)c2)N2CC[C@@]3(C[C@@H]3c3ccc(-c4cnc5nn(CCO)cc5c4)cc3F)C2=O)cc(F)c1=O (single isomer, unassigned; isomer 1)",
    "Result units": "%",
    "Emax": 108
  },
  {
    "Compound": "CC(C)(Cn1cc(C(F)(F)F)cn1)NC(=O)[C@@H](Cc1cnc2ncccn12)NC(=O)[C@H]1C[C@@H]1c1ccc(-c2cnc3nc(C4CC(F)(F)C4)cn3c2)cc1",
    "Result units": "%",
    "Emax": 102
  },
  {
    "Compound": "Cn1cc(C[C@@H](NC(=O)[C@H]2C[C@@H]2c2ccc(-c3cnc4nn(C)cc4c3)cc2)C(=O)NC(C)(C)Cn2nc(C(F)F)cc2-c2cn[nH]n2)cn1",
    "Result units": "%",
    "Emax": 111
  },
  {
    "Compound": "Cn1cc2cc(-c3ccc([C@H]4C[C@@]45CCN([C@H](Cc4cnn(C(F)F)c4)C(=O)NC4(Cn6nc(C(F)(F)F)cc6-c6cc(F)c(=O)n(C)c6)CC4)C5=O)c(F)c3)cnc2n1 (single isomer, unassigned; isomer 1)",
    "Result units": "%",
    "Emax": 79.5
  }
]

(I) Cc1ncc(-c2cc(C(F)(F)F)nn2CC(C)(C)NC(=O)[C@@H](Cc2cnn(C(F)F)c2)N2CCC3(CC3c3ccc(-c4cnc5nn(C)cc5c4)nc3C(F)(F)F)C2=O)cn1 (single isomer, unassigned; isomer 1)
(II) Cc1cn2cc(-c3ccc([C@H]4C[C@@H]4C(=O)N[C@H](Cc4cnc5ncccn45)C(=O)NC(C)(C)Cn4cc(C(F)(F)F)cn4)cc3)cnc2n1
Query: Pick one: I or II . Which has the bigger Emax number? // caller expects the label of the chosen entry
Response: II
